Target: T1, human 5T4-His protein (human, UniProt Q13641 32-355)
T1 construct: also called recombinant 5T4 protein (human 5T4-his tag); human 5T4 protein; not shown: His tag
T1 sequence (looked up): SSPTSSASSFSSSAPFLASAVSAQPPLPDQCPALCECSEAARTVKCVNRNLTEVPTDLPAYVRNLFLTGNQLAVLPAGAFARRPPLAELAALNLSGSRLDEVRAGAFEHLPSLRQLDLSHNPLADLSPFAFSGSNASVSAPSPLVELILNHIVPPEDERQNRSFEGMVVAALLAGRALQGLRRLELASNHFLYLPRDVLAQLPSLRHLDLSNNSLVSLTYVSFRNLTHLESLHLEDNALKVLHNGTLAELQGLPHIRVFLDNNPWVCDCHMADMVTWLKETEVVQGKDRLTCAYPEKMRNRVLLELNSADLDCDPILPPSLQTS
Assay: ELISA, coated antigen
OBSERVABLE: pEC50
Scale: pEC50 equals -log10([C]), with [C] in mol/L.

BINDER	pEC50
257F1 chimeric antibody (antibody, V domains shown, chimeric mAb) VH: QVLLQQSGAEVARPGASVKLSCKASGYTFTSYGLNWLRQRTGQGLEWIGEIYPRSENTHYNEKFKGKATLTADKSSSTAYMELRSLTSEDSAVYFCARGDWDFDHWGQGTTLTVSS VL: EILLTQSPAIIPASPGEKVTITCSASSSVSYMNWYQQKPGSSPKIWIYGISNLASGVPARFSGSGSGTFFSFTINSMEAEDVATYYCQQRSSYPRTFGGGTKLEIK	9.25

In the following, a different binder is considered.
Determine from records and report pEC50 for 113H5 chimeric antibody (antibody, V domains shown, chimeric mAb) VH: DVQLQESGPGLVKPSQSLSLTCSVTGYSITSGYYWNWIRQFPGNKLEWMGYINSDGSNNYNPSLKNRISITRDTSKNQFFLKLNSVTTEDTATYYCAREEYDYWFAYWGQGTLVTVSA VL: DIVMTQSQKFMSTSVGDRVSVTCKASQNVGTNVAWYQQKPGQSPKALIYSASNRYSGVPDRFTGSGFGTDFTLTISNVQSEDLTEYFCQQYNSYPYTFGGGTNLEIK
9.28
